Test: Acute toxicity (DL50) in the mouse
Type: in vivo
Conditions: in vivo, iv (Table 1), read-out: DL50 value
Field 'label' (enum: t / f). Set to t when LD50 is strictly under 700 mg/kg; else f.

| compound | group |
| --- | --- |
| O=C(N[C@@H](Cc1c[nH]c2ccccc12)C(=O)O)c1ccc([N+](=O)[O-])cc1 [Ex.29 (CR502)] | f |
| Cc1ccc(C(=O)NC(Cc2c[nH]c3ccccc23)C(=O)O)cc1 (racemic) [Ex.23 (CR555), N-p-toluyl-DL-tryptophane] | t |
| COC(=O)Cc1ccc(NC(=O)[C@H](Cc2c[nH]c3ccccc23)NC(=O)c2ccccc2)cc1 [Ex.40 (CR418)] | f |
| O=C(N[C@@H](Cc1c[nH]c2ccccc12)C(=O)O)c1ccc(Br)cc1 [Ex.19 (CR503), N-p-bromo-benzoyl-L-tryptophane] | t |
| O=C(Cc1ccc(Cl)cc1)N[C@@H](Cc1c[nH]c2ccccc12)C(=O)O [Ex.47 (CR584), N-p-chlorophenylacetyl-L-tryptophane] | t |
| CCOC(=O)c1ccc(NC(=O)[C@H](Cc2c[nH]c3ccccc23)NC(=O)c2ccccc2)cc1 [Ex.37 (CR402)] | f |
| O=C(O)Cc1ccc(NC(=O)[C@H](Cc2c[nH]c3ccccc23)NC(=O)c2ccccc2)cc1 [Ex.41 (CR421)] | f |

Now consider a different compound.
Input line: Take the compound O=C(NC(Cc1c[nH]c2ccccc12)C(=O)O)c1ccccc1Cl (racemic) [Ex.51 (CR618), N-o-chlorobenzoyl-DL-tryptophane] and say whether its LD50 is less than 700 mg/kg.
Output line: f

----------
Below, each entry is listed alongside its reported ED50.
System: gastric secretion
Test: Anti-secretive activity in the rat by gastric stimulus, oral
Type: in vivo
Conditions: oral (Table 1), read-out: Activity B: anti-secretive activity ED50
# output: number + unit

Observe how each entry below is paired with its result.
| compound | ED50 |
| --- | --- |
| O=C(N[C@@H](Cc1c[nH]c2ccccc12)C(=O)O)OCc1ccc(Br)cc1 [Ex. 6 (CR451), N-p-bromo-carbobenzoxy-L-tryptophane] | 77 mg/kg |
| N#Cc1ccc(C(=O)N[C@@H](Cc2c[nH]c3ccccc23)C(=O)O)cc1 [Ex.24 (CR512), N-p-cyano-benzoyl-L-tryptophane] | 360 mg/kg |
| O=C(N[C@@H](Cc1c[nH]c2ccccc12)C(=O)Nc1ccc(C(=O)Oc2ccc(Cl)cc2Cl)cc1)OCc1ccccc1 [Ex.34 (CR432)] | 310 mg/kg |
| CCOC(=O)c1ccc(NC(=O)[C@H](Cc2c[nH]c3ccccc23)NC(=O)OCc2ccccc2)cc1 [Ex.33 (CR401)] | 320 mg/kg |
| O=C(N[C@@H](Cc1c[nH]c2ccccc12)C(=O)O)OCc1ccc([N+](=O)[O-])cc1 [Ex.12 (CR438), N-p-nitro-carbobenzoxy-L-tryptophane] | 195 mg/kg |
| O=C(N[C@@H](Cc1c[nH]c2ccccc12)C(=O)O)OCc1ccc(I)cc1 [Ex. 7 (CR490), N-p-iodo-carbobenzoxy-L-tryptophane] | 94 mg/kg |
| O=C(N[C@@H](Cc1c[nH]c2ccccc12)C(=O)O)c1cccc(Cl)c1 [Ex.30 (CR546), N-m-chloro-benzoyl-L-tryptophane] | 147 mg/kg |
| Cc1ccc(C(=O)N[C@@H](Cc2c[nH]c3ccccc23)C(=O)O)cc1 [Ex.21 (CR510), N-p-toluyl-L-tryptophane] | 318 mg/kg |
| O=C(N[C@H](Cc1c[nH]c2ccccc12)C(=O)O)OCc1ccc(Cl)cc1 [Ex. 5 (CR630), N-p-chloro-carbobenzoxy-D-tryptophane] | 107 mg/kg |
| COc1ccc(COC(=O)N[C@@H](Cc2c[nH]c3ccccc23)C(=O)O)cc1 [Ex.32 (CR462), N-p-methoxy-carbobenzoxy-L-tryptophane] | 114 mg/kg |

Input line: Sample Cc1ccc(COC(=O)N[C@@H](Cc2c[nH]c3ccccc23)C(=O)O)cc1Cl [Ex.17 (CR497)] — what was its ED50?
Output line: 196 mg/kg

Input line: Sample O=C(N[C@H](Cc1c[nH]c2ccccc12)C(=O)O)c1ccccc1Cl [Ex.52 (CR637), N-o-chlorobenzoyl-D-tryptophane] — what was its ED50?
Output line: 390 mg/kg

Input line: Sample O=C(N[C@@H](Cc1c[nH]c2ccccc12)C(=O)O)OCc1ccc(Cl)cc1 [Ex. 1 (CR449), N-p-chloro-carbobenzoxy-L-tryptophane] — what was its ED50?
Output line: 127 mg/kg
